Tested on: MCR5 cells
ASSAY_METHOD_TEXT: Clonogenic IC50, MCR5
Format: cell-based
PROTOCOL_CONDITIONS: MCR5
MEASURE_NAME: IC50 (µM)
// return numeric value only (unit: µM, not printed)

Given the entry CC1(C)N=C(c2ccc(F)cc2)C(=O)N1CC(=O)Nc1ccc(F)c(Cl)c1 [Compound 13] , report its measured IC50.
335

###

ASSAY_METHOD_TEXT: Pharmacokinetics in tumor and plasma, NCI-H1975 xenograft mice
Format: in vivo, nude mice
PROTOCOL_CONDITIONS: nude, mouse, plasma, ip; 100 mg/kg i.p., single dose; read-out: plasma half-life (converted)
MEASURE_NAME: half-life (h)
// return numeric value only (unit: h, not printed)

Given the entry CN1CCC2(CC1)N=C(SCC(=O)Nc1cnc3ccccc3c1)C(c1ccc(Br)cc1)=N2 , report its measured half-life.
7.96
